# credit: patent US10975042B2

assay: Long-term storage stability of NCA, purity by DSC; assay type: physicochemical; conditions: storage at −20±5° C., 2 years; DSC
property-name: Purity after 2 years from purification (mol %)
Write the number in mol % without appending the unit.

compound	Purity after 2 years from purification (mol %)
COCOCCCC1NC(=O)OC1=O (stereo not shown) [(D)]	99.05
CC(C)(C)OCCCC1NC(=O)OC1=O (stereo not shown) [(F)]	99.12

Ask: Could you share which Purity after 2 years from purification value was measured for CC(C)CC1NC(=O)OC1=O (stereo not shown) [(P)] ?
Reply: 98.91

Ask: // Purity after 2 years from purification lookup, key: O=C1CCNC(=O)O1 [(Q)]
Reply: 99.33

Ask: Fill in the blank: the reported Purity after 2 years from purification of O=C(CC1NC(=O)OC1=O)OCc1ccccc1 (stereo not shown) [(G)] is ____.
Reply: 99.25

Ask: Look at this compound and give its reported Purity after 2 years from purification. CC(=O)N1CC(=O)OC1=O [(M)]
Reply: 99.23

Ask: Please give the measured Purity after 2 years from purification for this compound: CC(C)(C)OC(=O)N1CC(=O)OC1=O [(L)]
Reply: 99.05

Ask: What value of Purity after 2 years from purification has been reported for the following compound? CC(C)(C)OC(=O)CC1NC(=O)OC1=O (stereo not shown) [(H)]
Reply: 99.16

Ask: What value of Purity after 2 years from purification has been recorded for this entry: CC(C)C1NC(=O)OC1=O (stereo not shown) [(O)]
Reply: 98.79

Ask: What value of Purity after 2 years from purification has been recorded for this entry: CN1CC(=O)OC1=O [(K)]
Reply: 98.93

Ask: Sample O=C1NC(Cc2ccccc2)C(=O)O1 (stereo not shown) [(N)] — what was its Purity after 2 years from purification?
Reply: 98.85

Ask: Entry CC(C)(C)[Si](OCCC1NC(=O)OC1=O)(c1ccccc1)c1ccccc1 (stereo not shown) [(I)] has what Purity after 2 years from purification?
Reply: 99.36

Ask: For the compound shown here, O=C1NC(CCCOCc2ccccc2)C(=O)O1 (stereo not shown) [(E)] , give the reported Purity after 2 years from purification.
Reply: 98.89

Ask: I would be grateful if you could share the reported Purity after 2 years from purification for O=C(CCC1NC(=O)OC1=O)OCc1ccccc1 (stereo not shown) [(B)] .
Reply: 99.40

Ask: Any idea what its Purity after 2 years from purification is? The compound is CC(=O)OCCCC1NC(=O)OC1=O (stereo not shown) [(C)]
Reply: 99.21

Ask: Would you mind telling me what Purity after 2 years from purification value was observed for CC(C)(C)OC(=O)CCC1CC(=O)OC1=O (stereo not shown) [(A)] ?
Reply: 98.90

Ask: I'd like to know its Purity after 2 years from purification. The compound in question is O=C1CNC(=O)O1 [(J)]
Reply: 99.10

Ask: Look up Purity after 2 years from purification for this compound: O=C1CCCNC(=O)O1 [(R)]
Reply: 99.05

---

assay: Long-term storage stability of NCA, purity by DSC; format: physicochemical; details: storage at 0 to 5° C., 2 months; DSC
property-name: Purity after 2 months from purification (mol %)
Number in mol %, nothing else.

compound	obs-value
COCOCCCC1NC(=O)OC1=O (stereo not drawn)	99.00
CC(C)(C)OC(=O)N1CC(=O)OC1=O	99.05
O=C1NC(Cc2ccccc2)C(=O)O1 (stereo not drawn)	98.86
CC(=O)N1CC(=O)OC1=O	99.22

Ask: # lookup: Purity after 2 months from purification of CC(C)(C)OCCCC1NC(=O)OC1=O (stereo not drawn)
Reply: 99.10

---

test: Long-term storage stability of NCA, purity by DSC; format: physicochemical; conditions: initial value of storage test at −20±5° C.; DSC
property-name: Purity after purification (mol %)
Numeric answer only, unit mol % assumed.

Here's what some known entries look like.
compound	result-unit	Purity after purification
O=C(CCC1NC(=O)OC1=O)OCc1ccccc1 (stereo not shown)	mol %	99.40
CC(C)(C)[Si](OCCC1NC(=O)OC1=O)(c1ccccc1)c1ccccc1 (stereo not shown)	mol %	99.35
CC(C)(C)OC(=O)CC1NC(=O)OC1=O (stereo not shown)	mol %	99.18
O=C1CCCNC(=O)O1 [(R)]	mol %	99.03
COCOCCCC1NC(=O)OC1=O (stereo not shown)	mol %	99.00

Ask: Sample O=C1NC(Cc2ccccc2)C(=O)O1 (stereo not shown) — what was its Purity after purification?
Reply: 98.88

Ask: Returns the measured Purity after purification for the input compound. Input: "CC(C)(C)OC(=O)N1CC(=O)OC1=O"
Reply: 99.05

Ask: Endpoint output: Purity after purification of "O=C1CNC(=O)O1" . Value?
Reply: 99.10

Ask: // returns reported Purity after purification for input CC(=O)OCCCC1NC(=O)OC1=O (stereo not shown)
Reply: 99.20

Ask: Look up Purity after purification for this compound: CC(C)C1NC(=O)OC1=O (stereo not shown)
Reply: 98.80

Ask: Using the record for "CC(=O)N1CC(=O)OC1=O" , report its Purity after purification.
Reply: 99.22

Ask: For CC(C)(C)OCCCC1NC(=O)OC1=O (stereo not shown) , what is its reported Purity after purification?
Reply: 99.10

Ask: Which Purity after purification value belongs to CC(C)(C)OC(=O)CCC1CC(=O)OC1=O (stereo not shown) [Comparison 1, reference compound] ?
Reply: 98.14

Ask: Using the record for O=C(CC1NC(=O)OC1=O)OCc1ccccc1 (stereo not shown) , report its Purity after purification.
Reply: 99.25

---

assay: Long-term storage stability of NCA, purity by DSC; assay type: physicochemical; settings: storage at 0 to 5° C., half year; DSC
Quick reference for Purity after a half year from purification among some compounds
Your answer is read as mol %, so omit the unit and give the number.

Worked set:
compound	obs-value
O=C1CCCNC(=O)O1 [(R)]	99.03
CC(C)(C)OC(=O)N1CC(=O)OC1=O [(L)]	99.07
CC(C)(C)OC(=O)CCC1CC(=O)OC1=O (stereo not shown) [(A)]	98.90
O=C(CCC1NC(=O)OC1=O)OCc1ccccc1 (stereo not shown) [(B)]	99.41
CC(=O)OCCCC1NC(=O)OC1=O (stereo not shown) [(C)]	99.19
O=C1NC(Cc2ccccc2)C(=O)O1 (stereo not shown) [(N)]	98.86
O=C1NC(CCCOCc2ccccc2)C(=O)O1 (stereo not shown) [(E)]	98.86
CC(C)(C)OC(=O)CC1NC(=O)OC1=O (stereo not shown) [(H)]	99.18

Ask: Could you tell me which Purity after a half year from purification is on file for COCOCCCC1NC(=O)OC1=O (stereo not shown) [(D)] ?
Reply: 98.95

Ask: Query (compound): O=C(CC1NC(=O)OC1=O)OCc1ccccc1 (stereo not shown) [(G)] ; field requested: Purity after a half year from purification
Reply: 99.26

---

Reported Purity after 1 month from purification by item:
assay: Long-term storage stability of NCA, purity by DSC; format: physicochemical; conditions: storage at 0 to 5° C., 1 month; DSC
Your reply should be a number followed by the unit it is expressed in.

Previously resolved entries follow.
molecule	Purity after 1 month from purification
COCOCCCC1NC(=O)OC1=O (stereo not drawn)	98.98 mol %
CC(C)(C)[Si](OCCC1NC(=O)OC1=O)(c1ccccc1)c1ccccc1 (stereo not drawn)	99.35 mol %
O=C(CC1NC(=O)OC1=O)OCc1ccccc1 (stereo not drawn)	99.24 mol %

Ask: Item "CC(=O)N1CC(=O)OC1=O" has what recorded Purity after 1 month from purification?
Reply: 99.23 mol %

Ask: What value of Purity after 1 month from purification has been reported for the following molecule? O=C(CCC1NC(=O)OC1=O)OCc1ccccc1 (stereo not drawn)
Reply: 99.39 mol %

Ask: Quick one: Purity after 1 month from purification of CC(C)C1NC(=O)OC1=O (stereo not drawn) ?
Reply: 98.77 mol %

---

# Purity after purification annotations
Test: Long-term storage stability of NCA, purity by DSC
Type: physicochemical
Settings: initial value of storage test at 0 to 5° C.; DSC
Procedure: In Examples and Comparative Examples, the purity of each NCA was measured using differential scanning calorimeter (DSC) in accordance with 2.52 thermal analysis method of The Japanese Pharmacopoeia, 17th ed. (2.4.4. measurement of purity). […] Each purified NCA was evaluated for long-term storage stability. […] Regarding the conditions of −20±5° C., the results of purity measured by DSC at after a half year, after 1 year, and after 2 years are shown. […]
Reply numerically in mol %, unit not repeated.

compound	result-unit	Purity after purification
CC(C)(C)OCCCC1NC(=O)OC1=O (stereo not drawn)	mol %	99.10
CC(C)(C)OC(=O)CCC1CC(=O)OC1=O (stereo not drawn) [Comparison 1, reference compound]	mol %	98.14

Ask: Which Purity after purification is listed for O=C(CC1NC(=O)OC1=O)OCc1ccccc1 (stereo not drawn) ?
Reply: 99.25

Ask: If you can, please state the reported Purity after purification value of "CN1CC(=O)OC1=O" .
Reply: 98.94

Ask: State the recorded Purity after purification for this entry: CC(C)C1NC(=O)OC1=O (stereo not drawn)
Reply: 98.80

Ask: Quick check: Purity after purification of CC(C)(C)[Si](OCCC1NC(=O)OC1=O)(c1ccccc1)c1ccccc1 (stereo not drawn) ?
Reply: 99.35
